Measured melting point by item

Worked cases, answers included:
>  <COMPOUND>
CCOC(=O)NC(=O)C(F)F

>  <DATA_VALUE>
55 to 57 °C

$$$$
>  <COMPOUND>
CCCNC(=S)Nc1ccnc(CCCCCN2C(=O)c3ccccc3C2=O)n1

>  <DATA_VALUE>
146 to 149 °C

$$$$
>  <COMPOUND>
CN(CCc1ccccc1)C1CCN(C(=O)Nc2ccccc2)CC1

>  <DATA_VALUE>
105 to 107 °C

$$$$
>  <COMPOUND>
N#CCCNC(=O)c1cccc(-c2cccc(Oc3ccc4[nH]ccc4c3)n2)c1

>  <DATA_VALUE>
150 to 151 °C

$$$$

The record that follows has no melting point shown yet.
Entry CCOC(=O)N1CCCCN1C(=S)Cl — recorded melting point = 160 to 162 °C

* * *

ENDPOINT_LABEL: melting point

Worked cases, answers included:
>  <MOLECULE>
COc1ccc(Sc2cc(C(=O)O)c[nH]2)cc1

>  <melting point>
144 to 147 °C

$$$$
>  <MOLECULE>
CNC(=O)C(CC(O)CO)N(CCN(CCN(CCN(CC(=O)O)C(CC(O)CO)C(=O)NC)CC(=O)O)CC(=O)O)CC(=O)O (stereo unspecified)

>  <melting point>
86 to 92 °C

$$$$
>  <MOLECULE>
CN(C)c1cc(C(O)CNC(C)(C)C)ccc1O (stereo unspecified)

>  <melting point>
108 to 110 °C

$$$$
>  <MOLECULE>
COc1ccc(CS[C@@H]2C[C@@H](CSCc3ccccc3)N(S(C)(=O)=O)C2)cc1

>  <melting point>
69 to 71 °C

$$$$
>  <MOLECULE>
On1c(C(F)(F)F)nc2nc(Br)c(Cl)c(Br)c21

>  <melting point>
215 °C

$$$$

Entry Cn1nnnc1-c1cnc2ccccc2c1O — recorded melting point = 318 to 320 °C

Entry O=C(O)c1c[nH]c(CCc2ccccc2)n1 — recorded melting point = 126 to 130 °C

Entry COc1ccc2c(=O)c(-c3nnnn3C)cn(C)c2c1 — recorded melting point = 270 to 273 °C

Entry CC1(OCc2ccccc2Cl)COC(CCl)OC1 (stereo unspecified) — recorded melting point = 53 to 54 °C

Entry CCc1cc(=O)n(-c2cc(C(=O)OC(C)C)c(Cl)cc2F)c(=O)[nH]1 — recorded melting point = 121 to 124 °C

Entry CC(C)(C)SC(=S)c1cc(C(C)(C)C)c(O)c(C(C)(C)C)c1 — recorded melting point = 128 to 130 °C

* * *

ENDPOINT_LABEL: melting point

Worked cases, answers included:
>  <COMPOUND>
N=C(N)Nc1nc(CSCCNC2=C([N+](=O)[O-])CCCN2)cs1

>  <melting point>
211 to 212 °C

$$$$
>  <COMPOUND>
CC(C)c1cccc(C(C)C)c1N1C(=O)c2cccc3c(Cl)ccc(c23)C1=O

>  <melting point>
289 °C

$$$$
>  <COMPOUND>
C[C@H](CCC=O)[C@H]1CC[C@@]2(C)C3=C(CC[C@]12C)[C@@]1(C)CCC(=O)C(C)(C)C1CC3 (stereo not given in full)

>  <melting point>
110 to 115 °C

$$$$
>  <COMPOUND>
C[C@]1(N2C(=O)c3ccc(CNC(=O)c4ccc(Br)cn4)cc3C2=O)CCC(=O)NC1=O

>  <melting point>
260 to 262 °C

$$$$
>  <COMPOUND>
CCC(=O)C(C#N)Cc1cc(Cl)cc(Cl)c1 (stereo not given)

>  <melting point>
59 to 60 °C

$$$$
>  <COMPOUND>
COC1=NS(=O)N=C1OC

>  <melting point>
137 to 139 °C

$$$$
>  <COMPOUND>
Cc1cc(F)c(Nc2ncnc3cc(NC(=O)CCN4CCOCC4)ccc23)cc1O

>  <melting point>
228 to 233 °C

$$$$
>  <COMPOUND>
COC(=O)C1C(c2ccc(F)c(C)c2)=CC2(CC1(C)C)SCCCS2 (stereo not given)

>  <melting point>
100 to 101 °C

$$$$
>  <COMPOUND>
Cc1nn(-c2cc(Oc3ccc(O)cc3)c(Cl)cc2F)c(=O)n1C(F)F

>  <melting point>
162 °C

$$$$
>  <COMPOUND>
Cc1cc2c(c(C3=NNC(=O)CC3C)c1)OCC(=O)N2 (stereo not given)

>  <melting point>
252 to 254 °C

$$$$

Entry O=C(N=CNO)c1cc2c(cn1)[nH]c1ccccc12 — recorded melting point = 235 to 240 °C

Entry O=C(CCC12CCC(=O)N1C(=O)CC2)OCc1ccccc1 — recorded melting point = 80 to 82 °C

Entry O=c1[nH]c2ccc(Cl)cc2c2nc(-c3ccc(O)cc3)nn12 — recorded melting point = > 350 °C

Entry CCCCC1(N(C)C)CC=C(c2c[nH]c3ncccc23)CC1 (stereo not given) — recorded melting point = 142 to 145 °C

Entry CSc1ncnc2c(N(C)C)nc(Cl)nc12 — recorded melting point = 166 to 168 °C

Entry S=c1[nH]c(Nc2ccc(Cl)cc2)nc2ccccc12 — recorded melting point = 264 to 268 °C

Entry CCCC(CO)(CO)CO — recorded melting point = 100 to 101 °C

Entry CO[C@@H]1O[C@H](C(N)=O)[C@H]2OC(C)(C)O[C@@H]12 — recorded melting point = 134 to 136 °C
